# target-system: human M1 receptor (hCHRM1) (Homo sapiens, UniProt P11229)
# Construct: expressed in transfected cells
# Sequence (P11229 1-460): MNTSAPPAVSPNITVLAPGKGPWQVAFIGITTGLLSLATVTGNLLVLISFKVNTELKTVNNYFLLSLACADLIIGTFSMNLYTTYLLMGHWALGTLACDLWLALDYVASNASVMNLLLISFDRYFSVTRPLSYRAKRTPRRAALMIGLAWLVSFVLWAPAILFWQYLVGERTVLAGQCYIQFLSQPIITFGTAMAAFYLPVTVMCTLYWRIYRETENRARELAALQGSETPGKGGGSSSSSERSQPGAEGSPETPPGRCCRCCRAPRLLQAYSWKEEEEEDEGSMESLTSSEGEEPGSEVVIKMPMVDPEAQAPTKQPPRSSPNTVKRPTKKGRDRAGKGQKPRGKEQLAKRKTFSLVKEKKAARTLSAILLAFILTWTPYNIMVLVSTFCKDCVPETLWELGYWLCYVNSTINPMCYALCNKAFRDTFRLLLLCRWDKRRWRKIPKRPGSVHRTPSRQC
# test-summary: Measurement of M1 receptor positive allosteric modulator (M1PAM) activity, calcium fluorescence (FLIPRtetra)
# Assay type: cell-based
# protocol-conditions: 10 μM test compound with acetylcholine at EC20 (final 0.6-0.8 nM); 100% = acetylcholine 1 μM, 0% = DMSO; CHO-K1 cells expressing hCHRM1
Please note: activity (%) at 10 μM exactly at 90% is No. Only values below 90% get Yes.

[in] Does the reported activity (%) at 10 μM of the following compound sit strictly below 90%? Cc1cnc(C(=O)NC2CC2(F)F)cc1Cc1ccc(-c2ccn(C)n2)cc1 (stereo not drawn) [Example 22]
[out] Yes

[in] Does the reported activity (%) at 10 μM of the following compound sit strictly below 90%? COc1ccc(Cc2cc(C)nc(C(=O)N[C@H]3CCCC[C@@H]3O)c2)cc1 [Example 71]
[out] Yes

[in] Does the reported activity (%) at 10 μM of the following compound sit strictly below 90%? COc1nc(C(=O)N[C@H]2CCC[C@@H]2O)cc(Cc2ccc(-c3ccn(C)n3)cc2)c1C [Example 90]
[out] No

[in] Does the reported activity (%) at 10 μM of the following compound sit strictly below 90%? COc1nc(C(=O)N[C@H]2COCC[C@@H]2O)cc(Cc2ccc(-c3ccn(C)n3)cc2)c1C [Example 89]
[out] No

[in] Does the reported activity (%) at 10 μM of the following compound sit strictly below 90%? Cc1nc(C(=O)N[C@H]2COCC[C@@H]2O)cc(Cc2ccc(Cl)nc2)c1C [Example 85]
[out] No

----------
# target-system: human M1 receptor (hCHRM1) (Homo sapiens)
# Construct: expressed in transfected cells
# test-summary: Measurement of M1 receptor positive allosteric modulator (M1PAM) activity, calcium fluorescence (FLIPRtetra)
# Assay type: cell-based
# protocol-conditions: 10 μM test compound with acetylcholine at EC20 (final 0.6-0.8 nM); 100% = acetylcholine 1 μM, 0% = DMSO; CHO-K1 cells expressing hCHRM1
attribute-measured: activity (%) at 10 μM

[in] Look up activity (%) at 10 μM: Cc1nc(C(=O)N[C@H]2CCCC[C@@H]2O)cc(Cc2ccc(-c3ccn(C)n3)nc2)c1Cl
[out] 101%

[in] Look up activity (%) at 10 μM: Cc1cnc(C(=O)N[C@H]2CCCC[C@@H]2O)cc1Cc1ccc(-n2cccn2)nc1
[out] 102%

[in] Look up activity (%) at 10 μM: Cc1cnc(C(=O)NC2CCOC2)cc1Cc1ccc(-c2ccn(C)n2)cc1 (centres unmarked)
[out] 84%

[in] Look up activity (%) at 10 μM: Cc1nc(C(=O)N[C@H]2CCCC[C@@H]2O)cc(Cc2ccc(-n3cccn3)cc2)c1Cl
[out] 94%

[in] Look up activity (%) at 10 μM: Cn1ccc(-c2ccc(Cc3cc(C(=O)N[C@H]4COCC[C@@H]4O)ncc3C(F)F)cc2)n1
[out] 95%

[in] Look up activity (%) at 10 μM: Cc1cnc(C(=O)N[C@H]2CCCC[C@@H]2O)cc1Cc1ccc(-c2ccn(C)n2)cc1F
[out] 89%

[in] Look up activity (%) at 10 μM: Cc1cnc(C(=O)NC2CC2)cc1Cc1ccc(-c2ccn(C)n2)cc1
[out] 73%

[in] Look up activity (%) at 10 μM: COc1cc(Cc2ccc(-n3cccn3)cc2)cc(C(=O)N[C@H]2CCC[C@@H]2O)n1
[out] 96%
